Parameter: EC50. Scope: all listed entries.
# runDescription: DPPH radical scavenging activity
# experimentalSetup: mean ± SD of triplicates
Give just the numeric value; µM need not be written.

# EC50 (molecule: O=C1O[C@H]([C@@H](O)CO)C(O)=C1O [Ascorbic acid, ascorbic acid, reference compound] ) is 21.4

The reported EC50 of the molecule O=c1cc(-c2ccc(O)c(O)c2)oc2cc(O)cc(O)c12 was 3.05

Please fill in: EC50 reported for O=c1cc(-c2ccc(O)c(O)c2)oc2cc(O[C@@H]3O[C@H](CO)[C@@H](O)[C@H](O)[C@H]3O)cc(O)c12 [Luteolin 7-O-β-D-glucopyranoside, luteolin 7-O-β-D-glucopyranoside] = 4.79

Item: O=c1cc(-c2ccc(O)c(O)c2)oc2cc(O)cc(O[C@@H]3O[C@H](CO)[C@@H](O)[C@H](O)[C@H]3O)c12 [Luteolin 5-O-β-D-glucopyranoside, luteolin 5-O-β-D-glucopyranoside] | EC50: 4.76

Source of measurements: paper PMC6385118
